Tested on: SW-620
Test: NCI tumour cell line growth inhibition, 48 h
Active and inactive are the calls of the source. No stated cut-off is given here; in the data, active = GI50 up to about 1.1 µM and inactive = higher.
reported_metric: GI50

Given the entry c1ccc(COCC23CCN(Cc4ccccc4)C(CC(OCc4ccccc4)C2)S3)cc1 (stereo unspecified) , what GI50 was observed with SW-620? > 100 µM (inactive)

Would you mind doing O=C1c2c(Br)sc(Br)c2[C@@H](Cl)[C@H]1Cl as well? 5.08 µM (inactive)

Would you mind doing CCSc1nc(N2CCCC2)s[s+]1.[O-][Cl+3]([O-])([O-])[O-] as well? 34.4 µM (inactive)

Would you mind doing N#CC(NNC(=O)c1ccccc1O)c1ccccc1 (stereo unspecified) as well? 8.02 µM (inactive)

Would you mind doing C/C(=N\NC(=O)CC#N)c1c(O)cc(C)oc1=O as well? > 100 µM (inactive)

Would you mind doing C#CC(O)(c1nc2ccccc2s1)c1nc2ccccc2s1 as well? 33.7 µM (inactive)

----------
Test system: HOP-62
Experiment: NCI tumour cell line growth inhibition, 48 h
The source made the active and inactive calls. No stated cut-off is given here; in the data, active = GI50 up to about 1.1 µM and inactive = higher.
reported_metric: GI50

Using the record for Clc1ccc(C2SCc3nc4ccccc4n32)c(Cl)c1 (configuration not stated) , report its GI50. 14 µM (inactive)

Would you mind doing O=C(NCCCCCCCCNC(=O)Nc1cccc2ccccc12)Nc1cccc2ccccc12 as well? 12.8 µM (inactive)

Would you mind doing COc1cc(/C=C2\C[C@H]3[C@@H]4CCC5=CC(=O)CC[C@]5(C)[C@H]4CC[C@]3(C)C2=O)cc(OC)c1OC as well? 12.8 µM (inactive)

Would you mind doing CC1(C)CC(=O)/C(=C/C2CCNC2=S)C(=O)N1 (configuration not stated) as well? > 100 µM (inactive)

Would you mind doing CCCCCCCCCCCc1c(O)c(=O)c2c(oc3c(=O)c(CCCCCCCCCCC)c(O)c(=O)c3n2-c2ccc(N(C)C)cc2)c1=O as well? 20.7 µM (inactive)

Would you mind doing O=C(Cn1nnc(-c2ccccc2)n1)N/N=C/c1cn(Cc2ccc(Cl)cc2Cl)c2ccccc12 as well? > 100 µM (inactive)

Would you mind doing CCCCCC#COC1CC(C)CC[C@@H]1C(C)C (some centres not stated) as well? 47.9 µM (inactive)

----------
Test system: NCI-H23
Assay: NCI tumour cell line growth inhibition, 48 h
Activity calls are given as the source filed them. Rule as the data show it: active = GI50 up to about 1.1 µM and inactive = higher.
Pick from active, inactive when you respond.

What was the test verdict on C=C1CCCCCCCCCCC12SCCC2CCCCSC (stereo not given) ? inactive

Would you mind doing Cc1[nH]c2ncn(/N=C/c3ccccc3)c(=N)c2c1Cc1ccccc1 as well? inactive

Would you mind doing Cc1ccc(NC(=O)NC(=O)c2ccc([N+](=O)[O-])cc2[N+](=O)[O-])cc1Oc1ncc(Cl)cn1 as well? active

Would you mind doing C[C@]12CC[C@H](O)CC1=CC[C@@H]1C2CC[C@]2(C)Nc3c(cnn3-c3ccccc3)CC12 (stereo not given in full) as well? inactive

Would you mind doing CC(=O)Oc1ccc(C2COc3cc(OC(C)=O)c(OC(C)=O)cc3C2)cc1 (stereo not given) as well? inactive

Would you mind doing Cn1c(=O)c2c(nc3sc4ncccc4c(=O)n32)n(C)c1=O as well? inactive

Would you mind doing C=CCOC(C)n1c(C)c(Br)c(=O)[nH]c1=O (stereo not given) as well? inactive

Would you mind doing COc1cc(/C=C2\C[C@H]3[C@@H]4CCC5=CC(=O)CC[C@]5(C)[C@H]4CC[C@]3(C)C2=O)cc(OC)c1OC as well? inactive

Would you mind doing N#C/C(=C\c1cc(O)ccc1O)C(N)=O as well? inactive

Would you mind doing Cc1cc2c(cc1C)C(=O)/C(=C/c1ccccc1C(=O)O)C2 as well? inactive

Would you mind doing CCCc1c(C(=O)OCC)[nH]c(-c2ccc(-c3[nH]c(C(=O)OCC)c(CCC)c3C(=O)OCC)s2)c1C(=O)OCC as well? inactive

Would you mind doing CCOP(=O)(OCC)C(C(=O)OC)C(=O)C(=O)Nc1ccc(Cl)cc1Cl (stereo not given) as well? inactive

Would you mind doing CCCCCCCCCCCc1c(O)c(=O)c2c(oc3c(=O)c(CCCCCCCCCCC)c(O)c(=O)c3n2-c2ccc(N(C)C)cc2)c1=O as well? inactive

Would you mind doing O=C1c2cc(Br)ccc2-c2ccc3c4ccc5c6c(ccc(c7ccc1c2c73)c64)C(=O)c1cc(Br)ccc1-5 as well? inactive

Would you mind doing Cc1cc(S(=O)(=O)Nc2nc3ccccc3[nH]2)c(S)cc1Cl as well? inactive

Would you mind doing O=C(Cn1nc(Br)c(Br)c1Br)c1ccccc1 as well? inactive

Would you mind doing CCN(CC)CCNC(=O)c1nn(C)c(=S)[nH]c1=S as well? inactive

Would you mind doing CN1CCc2[nH]c3ccccc3c2C1 as well? inactive

Would you mind doing Clc1ccc(C2=NN=C3C(c4ccccc4)=Nc4ccccc4N3C2)cc1 as well? inactive

Would you mind doing CCOC(=O)C(Cc1ccccc1)NC(=O)c1nc[nH]c1/N=N/N(C)C (stereo not given) as well? inactive
